# target: UniProt:P32245
endpoint name: IC50 (nM)
// return numeric value only (unit: nM, not printed)

// query Could you share what IC50 was measured for `Cc1cc(N[C@H]2CCN(C(=O)Cc3ccc(OC(F)(F)F)cc3)C2)nc2ccc(O)cc12` , tested on UniProt:P32245?
// result 9.5

// query Could you share what IC50 was measured for `COc1ccc2nc(N[C@@H]3CN(C(=O)Cc4ccc(OC(F)(F)F)cc4)C[C@H]3O)nc(N[C@@H]3CCN(S(C)(=O)=O)C3)c2c1` , tested on UniProt:P32245?
// result 0.3

// query Could you share what IC50 was measured for `O=C(c1ccc(F)cc1)C1CCN(c2nc(N[C@H]3CCN(C(=O)Cc4ccccc4-c4ccccc4)C3)nc3ccccc23)CC1` , tested on UniProt:P32245?
// result 39

// query Could you share what IC50 was measured for `Cc1cc(N2CCS(=O)(=O)CC2)cc(N[C@H]2CCN(C(=O)Cc3ccc(OC(F)(F)F)cc3)C2)n1` , tested on UniProt:P32245?
// result 9.3

----------
As an illustration, consider measured IC50 for compounds on human MC4 receptor (Homo sapiens, UniProt P32245).
Sequence (P32245 whole entry): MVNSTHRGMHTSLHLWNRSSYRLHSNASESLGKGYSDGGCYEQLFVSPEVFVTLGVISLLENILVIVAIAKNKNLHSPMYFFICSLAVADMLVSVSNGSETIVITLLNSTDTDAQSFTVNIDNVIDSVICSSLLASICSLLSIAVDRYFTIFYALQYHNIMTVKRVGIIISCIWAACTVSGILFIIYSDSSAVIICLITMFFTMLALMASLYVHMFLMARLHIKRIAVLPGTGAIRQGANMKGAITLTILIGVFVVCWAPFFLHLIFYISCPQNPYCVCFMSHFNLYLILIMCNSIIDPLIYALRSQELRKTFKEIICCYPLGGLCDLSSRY
// return numeric value only (unit: nM, not printed)

| smiles str | target | endpoint name | unit info | meas value |
| --- | --- | --- | --- | --- |
| CO[C@@H]1CN(C(=O)Cc2ccc(OC(F)(F)F)cc2)C[C@H]1Nc1cc(C)c2cc(O)ccc2n1 | human MC4 receptor (Homo sapiens, UniProt P32245) | IC50 | nM | 12 |
| CC(=O)N1CCN(c2nc(N[C@@H]3CN(C(=O)Cc4ccc(OC(F)(F)F)cc4)C[C@H]3O)nc3cscc23)CC1 | human MC4 receptor (Homo sapiens, UniProt P32245) | IC50 | nM | 10 |
| Cc1cc(N[C@H]2CCN(S(C)(=O)=O)C2)nc(N[C@H]2CCN(C(=O)Cc3ccc(OC(F)(F)F)cc3)C2)n1 | human MC4 receptor (Homo sapiens, UniProt P32245) | IC50 | nM | 30 |
| O=C1CN(c2nc(N[C@H]3CCN(C(=O)C4(c5ccc(Cl)cc5)CC4)C3)nc3cc(F)ccc23)CCN1 | human MC4 receptor (Homo sapiens, UniProt P32245) | IC50 | nM | 26 |
| CS(=O)(=O)C1CCN(c2nc(N[C@H]3CCN(C(=O)Cc4ccc(OC(F)(F)F)cc4)C3)nc3cscc23)CC1 | human MC4 receptor (Homo sapiens, UniProt P32245) | IC50 | nM | 12 |
| Cc1ccc2nc(N[C@H]3CCN(C(=O)Cc4ccc(OC(F)(F)F)cc4)C3)nc(N(C)C)c2c1 | human MC4 receptor (Homo sapiens, UniProt P32245) | IC50 | nM | 18 |

// query Which value of IC50 has been reported for `COc1ccc2nc(N[C@H]3CCN(C(=O)Cc4ccc(OC(F)(F)F)cc4)C3)nc(N[C@@H]3CCN(S(C)(=O)=O)C3)c2c1` in the records?
// result 0.4

----------
As an illustration, consider measured pIC50 for compounds on human MC4 receptor (Homo sapiens).
Scale: pIC50 equals -log10([C]), with [C] in mol/L.

Example cases with answers are listed next.
| smiles str | pIC50 |
| --- | --- |
| COc1ccc2nc(N[C@@H]3CN(C(=O)Cc4ccc(OC(F)(F)F)cc4)C[C@H]3O)cc(N3CCOCC3)c2c1 | 8.54 |
| O=C1CN(c2nc(N[C@H]3CCN(C(=O)Cc4cc(F)ccc4-c4ccc(OC(F)(F)F)cc4)C3)nc3cc(F)ccc23)CCN1 | 8.36 |

Turning now to a further compound:
// query Could you share what pIC50 was measured for `CO[C@H]1CN(c2nc(N[C@H]3CCN(C(=O)Cc4ccc(OC(F)(F)F)cc4)C3)nc3ccccc23)C[C@H]1OC` , tested on human MC4 receptor (Homo sapiens)?
// result 8.64
